Test system: affinity purified β2GPI-dependent antiphospholipid antibody
Assay: Competitive inhibition ELISA: recombinant β2GPI proteins compete for antibody binding to coated full length recombinant β2GPI
Parameters: species or system human
Conditions: Ab 6626
observable: Max (maximum inhibition observed at concentrations tested) (%)
Answers are plain numbers, in %.

- molecule: "123--: recombinant β2GPI deletion mutant with domains 1, 2, 3 (protein) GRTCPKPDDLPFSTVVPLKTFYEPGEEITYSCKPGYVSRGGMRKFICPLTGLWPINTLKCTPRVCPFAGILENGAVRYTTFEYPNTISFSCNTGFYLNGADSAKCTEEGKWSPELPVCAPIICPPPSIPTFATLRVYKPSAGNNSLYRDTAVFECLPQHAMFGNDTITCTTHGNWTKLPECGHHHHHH"
  observed: 90

Now for the molecule whose Max (maximum inhibition observed at concentrations tested) we want.
Q) Which Max (maximum inhibition observed at concentrations tested) is listed for 1----: recombinant β2GPI protein with domain 1 only (SEQ ID NO:4 region), His6 tail (protein) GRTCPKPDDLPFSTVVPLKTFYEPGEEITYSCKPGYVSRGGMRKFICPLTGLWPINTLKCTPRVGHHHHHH ?
A) 85
